- protocol-notes: Tmax in human at 20 mg, po administered as single dose
- Assay type: ADME, organism-based
- run-conditions: in vivo
Parameter: Tmax. Scope: all listed entries.
A number alone suffices; assume h.

- compound: "Cn1c([S+](C)[O-])nc(-c2ccc(F)cc2)c1-c1ccnc(N)c1 (configuration not stated)"
  reading: 5

Please find the next compound below.
Memo: CC(=O)Nc1cc(-c2c(-c3ccc(F)cc3)nc([S+](C)[O-])n2C)ccn1 (configuration not stated) , reported Tmax: 2.9

---

- protocol-notes: AUC (0 to t) in human at 20 mg, po administered as single dose
- Assay type: ADME, organism-based
- run-conditions: in vivo
parameter: AUC(0-t) (µM·h)
A number alone suffices; assume µM·h.

- molecule: "CC(=O)Nc1cc(-c2c(-c3ccc(F)cc3)nc([S+](C)[O-])n2C)ccn1 (configuration not stated)"
  parameter: "AUC(0-t)"
  reading: 1.99

Please find the next molecule below.
Memo: Cn1c([S+](C)[O-])nc(-c2ccc(F)cc2)c1-c1ccnc(N)c1 (configuration not stated) , reported AUC(0-t): 6.38
